target: GLP-1 Receptor (Homo sapiens); assay: GLP-1R agonist cAMP stimulation assay (HEK293/GLP1R/CRE-LUC cells, Cisbio cAMP dynamic 2 kit); assay type: cell-based; settings: Table 3, HEK293/GLP1R/CRE-LUC cells, 30 min
Sequence (P43220 24-463, species assumed): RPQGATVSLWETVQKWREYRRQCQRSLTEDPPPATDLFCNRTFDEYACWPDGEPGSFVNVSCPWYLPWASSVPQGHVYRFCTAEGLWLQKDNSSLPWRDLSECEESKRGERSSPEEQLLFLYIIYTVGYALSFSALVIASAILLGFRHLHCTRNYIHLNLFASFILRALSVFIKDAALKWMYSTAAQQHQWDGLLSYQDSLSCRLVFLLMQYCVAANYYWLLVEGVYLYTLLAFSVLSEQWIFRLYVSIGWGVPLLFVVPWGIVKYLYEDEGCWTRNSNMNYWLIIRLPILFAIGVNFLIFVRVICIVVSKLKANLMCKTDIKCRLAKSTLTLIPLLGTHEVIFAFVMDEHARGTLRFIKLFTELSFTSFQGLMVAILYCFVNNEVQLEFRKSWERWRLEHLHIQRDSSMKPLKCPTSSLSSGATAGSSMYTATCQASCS
# EC50 listing for each entry below
Express the reported value numerically, then name its unit.

Would you please look over these solved cases?
1) Cc1cc(-n2nc3c(c2-n2ccn(-c4ccc(CS(C)(=N)=O)cc4)c2=O)[C@H](C)N(C(=O)c2cc4cc(C5CCOCC5)ccc4n2[C@@]2(c4noc(=O)[nH]4)C[C@@H]2C)CC3)cc(C)c1F (stereo partly drawn) [Compound 111] ... 0.014 nM
2) C[C@H]1c2c(nn(-c3ccc(F)c(C4CC4)c3)c2-n2ccn(-c3ccc(S(C)(=N)=O)cc3)c2=O)CCN1C(=O)c1cc2cc(C3CCOCC3)ccc2n1[C@@]1(c2noc(=O)[nH]2)C[C@@H]1C (stereo partly drawn) [Compound 118] ... 0.04 nM
3) Cc1cc(-n2nc3c(c2-n2ccn(-c4ccc(S(=N)(=O)CC5CC5)cc4F)c2=O)[C@H](C)N(C(=O)c2cc4cc([C@H]5CCOC(C)(C)C5)ccc4n2[C@@]2(c4noc(=O)[nH]4)C[C@@H]2C)CC3)cc(C)c1F (single isomer, unassigned) [Compound 184] ... 0.01 nM
4) Cc1cc(-n2nc3c(c2-n2ccn(-c4ccc5c(c4)C=CS(C)(=O)=N5)c2=O)[C@H](C)N(C(=O)c2cc4cc([C@H]5CCOC(C)(C)C5)ccc4n2[C@@]2(c4noc(=O)[nH]4)C[C@@H]2C)CC3)cc(C)c1F (single isomer, unassigned) [Compound 230] ... 0.048 nM
5) Cc1cc(-n2nc3c(c2-n2ccn(-c4ccc5c(c4Cl)CN=S5(C)=O)c2=O)[C@H](C)N(C(=O)c2cc4cc([C@H]5CCOC(C)(C)C5)ccc4n2[C@@]2(c4noc(=O)[nH]4)C[C@@H]2C)CC3)cc(C)c1F (single isomer, unassigned) [Compound 201] ... 0.011 nM

Next, consider the following molecule.
Consider CCS(=N)(=O)c1ccc(-n2ccn(-c3c4c(nn3-c3cc(C)c(F)c(C)c3)CCN(C(=O)c3cc5cc(C6CCOCC6)ccc5n3[C@@]3(c5noc(=O)[nH]5)C[C@@H]3C)[C@H]4C)c2=O)c(Cl)c1 (single isomer, unassigned) [Compound 137] . Its measured EC50 is 0.15 nM
